Source listed as patent US20200121803A1.

# experimental.system: T1, human CD98, endogenously expressed on Molt-4 human acute lymphoblastic leukemia cells (human)
# T1 chain: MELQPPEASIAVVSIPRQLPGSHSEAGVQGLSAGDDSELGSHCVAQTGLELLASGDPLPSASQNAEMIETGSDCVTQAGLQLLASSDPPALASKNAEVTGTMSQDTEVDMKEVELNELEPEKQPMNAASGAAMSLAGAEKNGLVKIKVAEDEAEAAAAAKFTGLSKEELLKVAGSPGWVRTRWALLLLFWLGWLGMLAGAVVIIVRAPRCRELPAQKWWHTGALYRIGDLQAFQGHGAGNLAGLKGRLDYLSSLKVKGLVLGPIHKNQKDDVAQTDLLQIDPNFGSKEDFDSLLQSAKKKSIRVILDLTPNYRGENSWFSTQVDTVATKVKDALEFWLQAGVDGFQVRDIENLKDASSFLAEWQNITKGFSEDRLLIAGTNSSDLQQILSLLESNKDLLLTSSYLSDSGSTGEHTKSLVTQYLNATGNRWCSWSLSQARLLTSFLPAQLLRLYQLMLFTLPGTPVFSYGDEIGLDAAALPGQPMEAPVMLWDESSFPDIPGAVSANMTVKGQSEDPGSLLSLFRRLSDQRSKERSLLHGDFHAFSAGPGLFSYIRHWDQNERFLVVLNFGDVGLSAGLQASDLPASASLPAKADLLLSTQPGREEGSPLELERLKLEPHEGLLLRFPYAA
# measurement.notes: cell-based or functional assay
What % Cell Viability at 50 nM was measured for each of the following?
Answers are plain numbers, in %.

Worked cases, % Cell Viability at 50 nM given:
{"binder": "CD98 (CL-huAb104)-CZ (antibody, human IgG1, kappa, L234A L235A, V domains shown, synthon CZ on reduced interchain cysteines (sites not given)) VH: EVQLVESGGGLVQPGGSLRLSCATSGFTFIDYYMSWVRQAPGKGLEWLGFIRNKAYGYTTEYSASVKGRFTISRDNSKSILYLQMNSLKTEDTAVYYCTRDRPAWFVYWGQGTLVTVSS VL: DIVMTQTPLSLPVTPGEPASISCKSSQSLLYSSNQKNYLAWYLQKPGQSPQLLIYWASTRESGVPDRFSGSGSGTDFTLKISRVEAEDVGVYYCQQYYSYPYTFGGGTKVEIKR", "% Cell Viability at 50 nM, %": 0.9}
{"binder": "CD98 (CL-huAb108)-AAD (antibody, human IgG1, kappa, L234A L235A, V domains shown, synthon AAD on reduced interchain cysteines (sites not given)) VH: EVQLVQSGAEVKKPGASVKVSCKASGFTFSDYTMAWVRQAPGQGLEWVATIIYSGRGTYYRDAVKGRFTITRDNSTSTLYLELSSLRSEDTAVYYCARQSDDTYYYWGYFDYWGQGTMVTVSS VL: DIVMTQTPLSLPVTPGEPASINCKSSQSLLFSGNQKNYLAWYLQKPGQSPQLLIYWASTRQSGVPDRFSGSGSGTDFTLKISRVEAEDVGIYYCQQYYDVPYTFGQGTKLEIKR", "% Cell Viability at 50 nM, %": 1.8}

# next binder below
The binder listed as CD98 (CL-huAb102)-YY (antibody, human IgG1, kappa, L234A L235A, V domains shown, synthon YY on reduced interchain cysteines (sites not given)) VH: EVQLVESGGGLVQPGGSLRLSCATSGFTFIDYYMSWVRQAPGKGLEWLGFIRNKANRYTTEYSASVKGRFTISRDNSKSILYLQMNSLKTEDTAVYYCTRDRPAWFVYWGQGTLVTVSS VL: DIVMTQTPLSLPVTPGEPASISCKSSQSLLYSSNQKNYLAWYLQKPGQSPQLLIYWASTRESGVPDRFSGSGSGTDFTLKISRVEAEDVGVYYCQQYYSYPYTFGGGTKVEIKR has a reported % Cell Viability at 50 nM of 3.1
